# assayed system: PfHsp20a (Plasmodium falciparum)
# Construct: full-length, residues 1–211, N-terminal 6xHis
# Sequence (Q8IES0 entry or part of it): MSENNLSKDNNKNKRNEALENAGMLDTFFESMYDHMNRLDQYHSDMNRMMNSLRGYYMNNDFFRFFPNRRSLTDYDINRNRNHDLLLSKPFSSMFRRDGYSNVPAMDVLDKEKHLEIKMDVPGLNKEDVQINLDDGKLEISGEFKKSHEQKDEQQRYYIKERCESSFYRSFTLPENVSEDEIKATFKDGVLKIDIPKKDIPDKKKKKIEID
# procedure summary: inhibition of chaperone activity (suppression of heat-induced MDH/CS aggregation); CD, DSF and DLS shifts also measured
measurement kind: IC50 (nM)
# output: bare number, implied unit nM

What is its IC50 for PfHsp20a (Plasmodium falciparum)? Entry: O=c1c(O)c(-c2ccc(O)c(O)c2)oc2cc(O)cc(O)c12 [quercetin, 3,3′,4′,5,7-pentahydroxyflavone] 320

###

# assayed system: PfHsp20b (Plasmodium falciparum, UniProt Q8IB02)
# Construct: full-length, residues 1–173, N-terminal 6xHis
# Sequence (Q8IB02 1-172): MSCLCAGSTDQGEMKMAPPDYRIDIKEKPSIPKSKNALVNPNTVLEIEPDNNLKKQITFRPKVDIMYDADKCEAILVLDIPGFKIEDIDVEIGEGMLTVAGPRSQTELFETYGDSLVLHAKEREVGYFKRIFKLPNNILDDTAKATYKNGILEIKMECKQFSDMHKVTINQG
# procedure summary: inhibition of chaperone activity (suppression of heat-induced MDH/CS aggregation); CD, DSF and DLS shifts also measured
measurement kind: IC50
Could you kindly put the unit after your number?

Tell me the measured IC50 of O=c1c(O)c(-c2ccc(O)c(O)c2)oc2cc(O)cc(O)c12 [quercetin, 3,3′,4′,5,7-pentahydroxyflavone] , please. 550 nM
